molecular target: pre-pro-human insulin
quantity: Selectivity

## Input What value of measured Selectivity is listed for trypsin variant SEQ ID NO: 103 (protein) IVGGYTCAANSIPYQVSLNSGSHRCGGSLINSQWVVSAAHCYKPRIQVRLGEHNIHVLEGNEQFINAAKIITHPNFNPNTLDNDIMLIKLSSPATLNSHVATVSLPTSCAAAGTECLISGWGNTSSSGSSMPSLLQCLKAPVLSDSSCKSSYPGQITGNMICVGFLEGGADSCQGDSGGPVVCNGQLQGIVSSGYGCAQKNKPGVYTKVCNYVNWIQQTIAAN ?
## Output >90%

## Input Need Selectivity, item trypsin variant SEQ ID NO: 28 (protein) IVGGYTCAANSIPYQVSLNSGSHVCGGSLINSQWVVSAAHCYKSRIQVRLGEHNIDVLEGNEQFINAAKIITHPNFNGNTLDNDIMLIKLSSPATLNSRVATVSLPRSCAAAGTECLISGWGNTKSSGSSYPSLLQCLKAPVLSDSSCKSSYPGQITGNMICVGFLEGGKDACQGDSGGPVVCNGQLQGIVSSGYGCAQKNKPGVYTKVCNYVNWIQQTIAAN
## Output >90%

## Input Would you mind telling me what Selectivity value was observed for trypsin variant SEQ ID NO: 116 (protein) IVGGYTCAANSIPYQVSLNSGSHRCGGSLINSQWVVSAAHCYKPRIQVRLGEHNIHVLEGNEQFINAAKIITHPNFNGNTLDNDIMLIKLSSPATLNSNVATVSLPTSCAAAGTECLISGWGNTSSSGSSMPSLLQCLKAPVLSDSSCKSSYPGQITGNMICVGFLEGGADACQGDSGGPVVCNGQLQGIVSSGYGCAQKNKPGVYTKVCNYVNWIQQTIAAN ?
## Output >90%
